molecular target: Recombinant human BRD4 containing dual bromodomains (BRD4-BD12 (1-477)) (Homo sapiens); construct: Recombinant human BRD4 containing dual bromodomains (BRD4-BD12 (1-477)); made in house; host or cells: E. coli BL21-CodonPlus (DE3), modified pET vector; test: BRD4 Alphascreen binding assay
assay-endpoint: IC50

{"compound": "CCOc1cc(C(=O)O)cc(F)c1-n1cc(CC2CCC2)c2ncc(-c3c(C)noc3C)cc21", "measured-on": "Recombinant human BRD4 containing dual bromodomains (BRD4-BD12 (1-477)) (Homo sapiens)", "IC50": "1 to 8 µM"}
{"compound": "CCOc1ccc(C(=O)O)cc1-n1cc(-c2ccccc2)c2ncc(-c3c(C)noc3C)cc21", "measured-on": "Recombinant human BRD4 containing dual bromodomains (BRD4-BD12 (1-477)) (Homo sapiens)", "IC50": "1 to 8 µM"}
{"compound": "Cc1noc(C)c1-c1cnc2c(-c3cc(C(=O)O)ccc3Cl)cn(C(C)c3ccccc3)c2c1 (stereo not shown)", "measured-on": "Recombinant human BRD4 containing dual bromodomains (BRD4-BD12 (1-477)) (Homo sapiens)", "IC50": "8 to 1000 µM"}
{"compound": "Cc1noc(C)c1-c1cnc2c(Cc3cccc(Cl)c3)cn(-c3c(Cl)cc(C(=O)O)cc3Cl)c2c1", "measured-on": "Recombinant human BRD4 containing dual bromodomains (BRD4-BD12 (1-477)) (Homo sapiens)", "IC50": "1 to 8 µM"}
{"compound": "CCOc1cc(C(=O)O)cc(OCC)c1-n1cc(-c2cnn(CC3CC3)c2)c2ncc(-c3c(C)noc3C)cc21", "measured-on": "Recombinant human BRD4 containing dual bromodomains (BRD4-BD12 (1-477)) (Homo sapiens)", "IC50": "1 to 8 µM"}
{"compound": "Cc1noc(C)c1-c1cnc2c(Cc3cccc(OC(F)F)c3)cn(-c3ccnc(C(=O)O)c3)c2c1", "measured-on": "Recombinant human BRD4 containing dual bromodomains (BRD4-BD12 (1-477)) (Homo sapiens)", "IC50": "1 to 8 µM"}
{"compound": "CCn1cc(-n2cc(-c3ccc(C(=O)O)cc3OC(F)(F)F)c3cc(-c4c(C)noc4C)cnc32)c(C)n1", "measured-on": "Recombinant human BRD4 containing dual bromodomains (BRD4-BD12 (1-477)) (Homo sapiens)", "IC50": "1 to 8 µM"}
{"compound": "Cc1noc(C)c1-c1cnc2c(-c3cccc(C(=O)O)c3)c(C(F)(F)F)n([C@@H](C)c3ccccn3)c2c1", "measured-on": "Recombinant human BRD4 containing dual bromodomains (BRD4-BD12 (1-477)) (Homo sapiens)", "IC50": "8 to 1000 µM"}
{"compound": "Cc1noc(C)c1-c1cnc2c(c1)c(-c1c(Cl)cc(C(=O)O)cc1OCC(F)F)cn2-c1cnc(C2CC2)nc1", "measured-on": "Recombinant human BRD4 containing dual bromodomains (BRD4-BD12 (1-477)) (Homo sapiens)", "IC50": "1 to 8 µM"}
{"compound": "COc1cc(C(=O)O)ncc1-c1cn(C2CCOCC2)c2ncc(-c3c(C)noc3C)cc12", "measured-on": "Recombinant human BRD4 containing dual bromodomains (BRD4-BD12 (1-477)) (Homo sapiens)", "IC50": "0.0001 to 1 µM"}

**Query** # lookup: IC50 of `CCOc1cc(OC)c(C(=O)O)cc1-c1cn(-c2ccc(F)cc2F)c2ncc(-c3c(C)noc3C)cc12`
**Result** 8 to 1000 µM

**Query** Try this compound next: `Cc1noc(C)c1-c1cnc2c(CC3CCC3)cn(-c3ccc([N+](=O)[O-])cc3F)c2c1`
**Result** 8 to 1000 µM

**Query** Next compound up: `Cc1noc(C)c1-c1cnc2c(c1)c(-c1ccc(C(=O)O)cc1OC(C)C)cn2-c1cnc(N2CCC2)nc1`
**Result** 8 to 1000 µM

**Query** How about this compound: Cc1noc(C)c1-c1cnc2c(c1)c(-c1ccc(C(=O)O)cc1OC(F)(F)F)cn2C1(C)CCOC1 (stereo not shown)
**Result** 8 to 1000 µM

**Query** Check `Cc1noc(C)c1-c1cnc2c(c1)c(-c1ccc(C(=O)O)cc1OC(F)(F)F)cn2[C@@H]1CCOC1` too.
**Result** 8 to 1000 µM

**Query** # repeat for `CCOc1cc(C(=O)O)cc(OCC)c1-n1cc(-c2ccccc2)c2ncc(-c3c(C)noc3C)cc21`
**Result** 1 to 8 µM
